Catalogue of pIC50 values
# System: HIV-1 (subtype B) in MT-4 cells
# measurement_protocol: Antigen p24 assay in HIV-infected MT-4 cells
# Assay type: cell-based
# condition_details: Human immunodeficiency virus 1, MT4; HIV-1 899A strain (subtype B), third day after infection
# Protocol: The human MT-4 lymphoblastoid cells were cultured in RPMI 1640 medium supplemented with 10% fetal bovine serum (FBS) (HyClone, Logan, UT, USA), 2 mM L-glutamine, 50 U/mL penicillin, and 50 μg/mL streptomycin in a humidified atmosphere of 5% CO2 at 37 °C. The cells were re-seeded at a density of 3.0 × 10^5 cells/mL every three days. […] Cell viability was measured by MTT assay.
pIC50: −log10 of the molar value.

# compound, inequality_sign, pIC50
data = [
    ("O=C1Nc2ccc(Cl)cc2[C@@](C#CC2CC2)(C(F)(F)F)O1 [EFV, Efavirenz, reference compound]", ">", 7.30),
    ("Oc1c(N/N=C/c2ccc(Br)c(Br)c2)ccc2cccnc12", ">", 6.30),
    ("Oc1c(N/N=C/c2ccccc2)ccc2cccnc12", "=", 6.11),
    ("O=[N+]([O-])c1ccc(/C=N/Nc2ccc3cccnc3c2O)cc1", "=", 5.92),
    ("COc1ccc(/C=N/Nc2ccc3cccnc3c2O)cc1", "=", 6.17),
    ("Oc1c(N/N=C/c2ccc(F)cc2)ccc2cccnc12", ">", 6.30),
    ("O=[N+]([O-])c1cccc(/C=N/Nc2ccc3cccnc3c2O)c1", "=", 5.85),
]
